Would you kindly list Substrate recovered at the initial time point from the fecal suspensions for each of these molecules?
system: human fecal suspensions with gut microbiota; details: 0 hr, initial substrate dose 1 µmol
One number for each entry, in %.

{"smi": "O=C(O)c1cc(O)c(O)c(O)c1", "measured_target": "human fecal suspensions with gut microbiota", "recorded_value": 95.8}
{"smi": "O=C(O)/C=C/c1ccc(O)c(O)c1", "measured_target": "human fecal suspensions with gut microbiota", "recorded_value": 86.0}

From here, focus on the item given below.
Task: Please look up its Substrate recovered at the initial time point from the fecal suspensions: "O=C(/C=C/c1ccc(O)c(O)c1)O[C@@H]1C[C@@](O)(C(=O)O)C[C@@H](O)[C@@H]1O"
Result: 79.3
